Origin of the recorded values: patent US20210228562A1

Target: IRAK4 (Homo sapiens)
Construct: endogenous in cells; host or cells: OCI-LY10
Sequence (Q9NWZ3 1-460): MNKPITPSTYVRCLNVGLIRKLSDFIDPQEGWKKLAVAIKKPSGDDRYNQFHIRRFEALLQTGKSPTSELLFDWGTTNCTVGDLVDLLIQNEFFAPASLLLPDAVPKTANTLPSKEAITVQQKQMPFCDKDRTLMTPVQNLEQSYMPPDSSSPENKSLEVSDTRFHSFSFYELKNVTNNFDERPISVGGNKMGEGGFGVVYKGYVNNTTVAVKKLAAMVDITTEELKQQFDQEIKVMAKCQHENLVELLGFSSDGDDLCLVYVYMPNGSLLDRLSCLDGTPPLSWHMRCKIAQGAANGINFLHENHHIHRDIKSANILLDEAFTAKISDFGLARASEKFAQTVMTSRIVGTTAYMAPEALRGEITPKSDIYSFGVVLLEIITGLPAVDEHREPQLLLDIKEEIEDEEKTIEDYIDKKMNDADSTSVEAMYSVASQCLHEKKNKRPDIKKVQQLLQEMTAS
Test: IRAK4 MSD Degradation in OCI-LY10
Format: cell-based
Conditions: OCI-LY10 cells, 24 hrs incubation; read-out: IRAK4 degradation in OCI-LY10 at 24 hrs: DC50
Below, each of the compounds is paired with its reported DC50 value.
quantity measured: DC50

>>> measured_result("CC(C)(O)c1cc2nc([C@H]3CC[C@H](CN4CC5(CC(CCNc6cccc7c6C(=O)N(C6CCC(=O)NC6=O)C7=O)C5)C4)CC3)sc2cc1NC(=O)c1ccnc(C(F)(F)F)n1 (some centres unmarked)")
"100 to 500 nM"
>>> measured_result("Cc1cccc(C(=O)Nc2cc3sc([C@H]4CC[C@H](CN(C)[C@H]5CC[C@H](Nc6cccc7c6C(=O)N(C6CCC(=O)NC6=O)C7=O)CC5)CC4)nc3cc2C(C)(C)O)n1 (some centres unmarked)")
"< 50 nM"
>>> measured_result("Cc1cccc(C(=O)Nc2cc3sc([C@H]4CC[C@H](CN5CCC6(CC5)CC(CCNc5cccc7c5C(=O)N(C5CCC(=O)NC5=O)C7=O)C6)CC4)nc3cc2C(C)(C)O)n1 (some centres unmarked)")
"50 to 100 nM"
>>> measured_result("CC(C)(O)c1cc2nc([C@H]3CC[C@H](CN4CC5(CC(CCNc6cccc7c6C(=O)N(C6CCC(=O)NC6=O)C7=O)C5)C4)CC3)sc2cc1NC(=O)c1cccc(C(C)(F)F)c1 (some centres unmarked)")
"500 to 1000 nM"
>>> measured_result("CC(C)(O)c1cc2nc([C@H]3CC[C@H](CN4CCC(CCNc5cccc6c5C(=O)N(C5CCC(=O)NC5=O)C6=O)CC4)CC3)sc2cc1NC(=O)c1cccc(C(F)(F)F)n1 (some centres unmarked)")
"< 50 nM"

====

Below, each of the compounds is paired with its reported DC50 value.
Biological target: Ikaros (protein product of gene IKZF1) (Homo sapiens, UniProt Q13422+Q96SW2)
Construct: endogenous in cells; host or cells: OCI-LY10
Sequence (Q13422 whole entry): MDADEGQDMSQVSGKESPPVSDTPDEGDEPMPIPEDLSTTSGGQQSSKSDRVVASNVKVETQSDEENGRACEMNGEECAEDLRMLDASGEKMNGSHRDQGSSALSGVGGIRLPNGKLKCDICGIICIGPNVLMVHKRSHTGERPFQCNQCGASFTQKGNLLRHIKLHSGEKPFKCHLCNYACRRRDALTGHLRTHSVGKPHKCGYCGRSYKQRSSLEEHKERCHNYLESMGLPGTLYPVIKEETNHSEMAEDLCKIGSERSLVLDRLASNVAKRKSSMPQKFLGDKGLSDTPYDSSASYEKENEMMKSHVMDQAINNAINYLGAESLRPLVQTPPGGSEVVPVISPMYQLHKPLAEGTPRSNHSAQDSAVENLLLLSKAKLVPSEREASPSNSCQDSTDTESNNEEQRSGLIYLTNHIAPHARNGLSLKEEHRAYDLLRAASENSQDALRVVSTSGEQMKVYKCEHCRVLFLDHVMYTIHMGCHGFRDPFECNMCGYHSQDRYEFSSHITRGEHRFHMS
Sequence (Q96SW2 whole entry): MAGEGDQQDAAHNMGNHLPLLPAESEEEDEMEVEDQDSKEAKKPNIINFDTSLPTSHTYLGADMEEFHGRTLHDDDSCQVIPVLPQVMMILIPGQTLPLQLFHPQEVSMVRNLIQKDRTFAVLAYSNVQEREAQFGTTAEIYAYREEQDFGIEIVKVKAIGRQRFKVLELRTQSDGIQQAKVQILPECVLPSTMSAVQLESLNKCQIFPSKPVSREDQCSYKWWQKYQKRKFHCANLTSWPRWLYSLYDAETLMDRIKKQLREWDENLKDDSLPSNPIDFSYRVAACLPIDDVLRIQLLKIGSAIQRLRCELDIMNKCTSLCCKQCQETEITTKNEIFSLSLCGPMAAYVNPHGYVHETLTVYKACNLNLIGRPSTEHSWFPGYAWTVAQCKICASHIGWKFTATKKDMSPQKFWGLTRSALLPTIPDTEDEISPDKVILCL
Sequence (Q16531 whole entry partner): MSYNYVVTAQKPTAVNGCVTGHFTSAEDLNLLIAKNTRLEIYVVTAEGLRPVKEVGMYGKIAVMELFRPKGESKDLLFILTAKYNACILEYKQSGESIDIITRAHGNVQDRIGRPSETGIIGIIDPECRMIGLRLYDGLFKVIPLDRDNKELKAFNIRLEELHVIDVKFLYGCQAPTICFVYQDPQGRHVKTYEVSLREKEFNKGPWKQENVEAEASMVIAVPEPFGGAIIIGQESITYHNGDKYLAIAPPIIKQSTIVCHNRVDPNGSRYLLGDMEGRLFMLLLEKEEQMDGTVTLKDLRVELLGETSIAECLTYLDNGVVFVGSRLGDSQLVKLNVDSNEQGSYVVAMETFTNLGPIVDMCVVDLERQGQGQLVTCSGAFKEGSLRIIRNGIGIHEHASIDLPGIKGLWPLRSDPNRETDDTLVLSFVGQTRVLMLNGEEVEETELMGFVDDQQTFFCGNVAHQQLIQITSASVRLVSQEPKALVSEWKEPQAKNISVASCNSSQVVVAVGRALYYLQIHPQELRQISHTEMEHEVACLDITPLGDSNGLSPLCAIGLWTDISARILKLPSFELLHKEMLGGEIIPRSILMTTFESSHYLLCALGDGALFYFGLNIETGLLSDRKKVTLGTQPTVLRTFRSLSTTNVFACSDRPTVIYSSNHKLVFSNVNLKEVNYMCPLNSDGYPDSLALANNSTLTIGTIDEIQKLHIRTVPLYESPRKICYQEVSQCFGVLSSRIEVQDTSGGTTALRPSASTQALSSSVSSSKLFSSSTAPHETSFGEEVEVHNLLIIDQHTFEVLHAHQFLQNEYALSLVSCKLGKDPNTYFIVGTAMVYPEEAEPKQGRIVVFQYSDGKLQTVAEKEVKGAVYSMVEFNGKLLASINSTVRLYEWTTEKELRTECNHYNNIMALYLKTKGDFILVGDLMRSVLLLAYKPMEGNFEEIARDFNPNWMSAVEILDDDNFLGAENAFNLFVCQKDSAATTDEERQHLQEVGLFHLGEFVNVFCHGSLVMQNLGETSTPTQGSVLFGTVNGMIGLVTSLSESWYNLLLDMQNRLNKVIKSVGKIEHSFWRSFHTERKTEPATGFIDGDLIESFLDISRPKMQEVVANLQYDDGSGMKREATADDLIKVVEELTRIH
Experiment: Quantification of Ikaros degradation in OCI-LY10 cells (quantitative immunoblotting)
Format: cell-based
Conditions: 6 h treatment
Protocol: Degradation of Ikaros (protein product of gene IKZF1) and Aiolos (protein product of gene IKZF3) were determined by quantitative immunoblotting as follows. OCI-LY10 cells, 2×10^6 cells/well, were treated with listed concentrations of IRAK4 degraders or control compounds in 6 well plates for 6 h. […] After incubation in secondary, membranes were washed three times with TBST, 5 minutes each and read on LICOR Odyssey imager. […]
quantity measured: DC50

>>> measured_result("CC(C)(O)c1cc2nc([C@H]3CC[C@H](CN4CC5(CC(CCNc6cccc7c6C(=O)N([C@@H]6CCC(=O)NC6=O)C7=O)C5)C4)CC3)sc2cc1NC(=O)c1cccc(C(F)(F)F)n1 (single isomer, unassigned)")
"< 50 nM"
>>> measured_result("CC(C)(O)c1cc2nc([C@H]3CC[C@H](CN4CC5(CC(CCCNc6cccc7c6C(=O)N(C6CCC(=O)NC6=O)C7=O)C5)C4)CC3)sc2cc1NC(=O)c1cccc(C(F)(F)F)n1 (stereo partly drawn)")
"< 50 nM"
>>> measured_result("CC(C)(O)c1cc2nc(N3CCC(CN4CCC5(CC4)CC(Nc4cccc6c4C(=O)N(C4CCC(=O)NC4=O)C6=O)C5)CC3)sc2cc1NC(=O)c1cccc(C(F)(F)F)n1 (stereo not drawn)")
"< 50 nM"

====

Biological target: Ikaros (protein product of gene IKZF1) (Homo sapiens, UniProt Q13422+Q96SW2)
Construct: endogenous in cells; host or cells: OCI-LY10
Assay: Quantification of Ikaros degradation in OCI-LY10 cells (quantitative immunoblotting)
Format: cell-based
Conditions: 6 h treatment
Below, each of the compounds is paired with its reported DC50 value.
quantity measured: DC50

>>> measured_result("CN(C[C@H]1CC[C@H](c2nc3cc(C(C)(C)O)c(NC(=O)c4cccc(C(F)(F)F)n4)cc3s2)CC1)[C@H]1CC[C@@H](CNc2cccc3c2C(=O)N(C2CCC(=O)NC2=O)C3=O)CC1 (some centres unmarked)")
"< 50 nM"
>>> measured_result("CC(C)(O)c1cc2nc([C@H]3CC[C@H](CN4CC(CCNc5cccc6c5C(=O)N(C5CCC(=O)NC5=O)C6=O)C4)CC3)sc2cc1NC(=O)c1cccc(C(F)(F)F)n1 (some centres unmarked)")
"100 to 500 nM"
>>> measured_result("COc1cc2nc([C@H]3CC[C@H](CN(C)[C@H]4CC[C@@]5(CC4)C[C@@H](CNc4cccc6c4C(=O)N(C4CCC(=O)NC4=O)C6=O)C5)CC3)sc2cc1NC(=O)c1cccc(C(F)(F)F)n1 (some centres unmarked)")
"50 to 100 nM"
>>> measured_result("CC(C)(O)c1cc2nc([C@H]3CC[C@H](CN4CC5(CC(CCNc6cccc7c6C(=O)N(C6CCC(=O)NC6=O)C7=O)C5)C4)CC3)sc2cc1NC(=O)c1cccc(C(C)(F)F)n1 (some centres unmarked)")
"< 50 nM"
>>> measured_result("COc1cc2nc([C@H]3CC[C@H](CN4CCC5(CC4)CC(Nc4cccc6c4C(=O)N(C4CCC(=O)NC4=O)C6=O)C5)CC3)sc2cc1NC(=O)c1cccc(C)n1 (some centres unmarked)")
"100 to 500 nM"

====

Target: Ikaros (protein product of gene IKZF1) (Homo sapiens, UniProt Q13422+Q96SW2)
Construct: endogenous in cells; host or cells: OCI-LY10
Assay: Quantification of Ikaros degradation in OCI-LY10 cells (quantitative immunoblotting)
Type: cell-based
Conditions: 6 h treatment
Procedure: Degradation of Ikaros (protein product of gene IKZF1) and Aiolos (protein product of gene IKZF3) were determined by quantitative immunoblotting as follows. OCI-LY10 cells, 2×10^6 cells/well, were treated with listed concentrations of IRAK4 degraders or control compounds in 6 well plates for 6 h. […] After incubation in secondary, membranes were washed three times with TBST, 5 minutes each and read on LICOR Odyssey imager. […]
Below, each of the molecules is paired with its reported DC50 value.
quantity measured: DC50

>>> measured_result("CC(C)(O)c1cc2nc([C@H]3CC[C@H](CN4CC5(CC(CCNc6cccc7c6C(=O)N(C6CCC(=O)NC6=O)C7=O)C5)C4)CC3)sc2cc1NC(=O)c1cccc(C(F)F)n1 (some centres unmarked)")
"< 50 nM"
>>> measured_result("CC(C)(O)c1cc2nc([C@H]3CC[C@H](CN4CC5(CC(CCNc6cccc7c6C(=O)N(C6CCC(=O)NC6=O)C7=O)C5)C4)CC3)sc2cc1NC(=O)c1ccnc(C(F)(F)F)n1 (some centres unmarked)")
"< 50 nM"
>>> measured_result("CN(C[C@H]1CC[C@H](c2nc3cc(C(C)(C)O)c(NC(=O)c4cccc(C(F)(F)F)n4)cc3s2)CC1)[C@H]1CC[C@H](CNc2cccc3c2C(=O)N(C2CCC(=O)NC2=O)C3=O)CC1 (some centres unmarked)")
"< 50 nM"
>>> measured_result("COc1cc2nc([C@H]3CC[C@H](CN4CC5(CCC(CNc6cccc7c6C(=O)N(C6CCC(=O)NC6=O)C7=O)CC5)C4)CC3)sc2cc1NC(=O)c1cccc(C(C)(F)F)n1 (some centres unmarked)")
"100 to 500 nM"
>>> measured_result("CC(C)(O)c1cc2nc([C@H]3CC[C@H](CN4CCC(CCNc5cccc6c5C(=O)N(C5CCC(=O)NC5=O)C6=O)CC4)CC3)sc2cc1NC(=O)c1cccc(C(F)(F)F)n1 (some centres unmarked)")
"< 50 nM"

====

Below, each of the compounds is paired with its reported DC50 value.
Biological target: IRAK4 (Homo sapiens)
Construct: endogenous in cells; host or cells: OCI-LY10
Experiment: IRAK4 MSD Degradation in OCI-LY10
Type: cell-based
Conditions: OCI-LY10 cells, 24 hrs incubation; read-out: IRAK4 degradation in OCI-LY10 at 24 hrs: DC50
quantity measured: DC50

>>> measured_result("COc1cc2nc([C@H]3CC[C@H](CN4CCC5(CC4)CC(Nc4cccc6c4C(=O)N(C4CCC(=O)NC4=O)C6=O)C5)CC3)sc2cc1NC(=O)c1cnn2cccnc12 (some centres unmarked)")
"< 50 nM"
>>> measured_result("CC(C)(O)c1cc2nc([C@H]3CC[C@H](CN4CC5(CC(CCNc6cccc7c6C(=O)N(C6CCC(=O)NC6=O)C7=O)C5)C4)CC3)sc2cc1-n1ccc2ccccc2c1=O (some centres unmarked)")
"100 to 500 nM"
>>> measured_result("COc1cc2nc([C@H]3CC[C@H](CN4CCC5(CC4)CC(CCNc4cccc6c4C(=O)N(C4CCC(=O)NC4=O)C6=O)C5)CC3)sc2cc1NC(=O)c1cccc(C(C)(F)F)n1 (some centres unmarked)")
"50 to 100 nM"
>>> measured_result("CC(C)(O)c1cc2nc([C@H]3CC[C@H](CN4CC5(CC(CCNc6cccc7c6C(=O)N([C@H]6CCC(=O)NC6=O)C7=O)C5)C4)CC3)sc2cc1NC(=O)c1cccc(C(F)(F)F)n1 (single isomer, unassigned)")
"< 50 nM"
>>> measured_result("CC(C)(O)c1cc2nc([C@H]3CC[C@H](CN4CCC5(CC4)CC(CNc4cccc6c4C(=O)N(C4CCC(=O)NC4=O)C6=O)C5)CC3)sc2cc1NC(=O)c1cccc(C(F)(F)F)n1 (some centres unmarked)")
"< 50 nM"
>>> measured_result("C[C@@H](CNc1cccc2c1C(=O)N(C1CCC(=O)NC1=O)C2=O)C1CC2(C1)CN(C[C@H]1CC[C@H](c3nc4cc(C(C)(C)O)c(NC(=O)c5cccc(C(F)(F)F)n5)cc4s3)CC1)C2 (some centres unmarked)")
"< 50 nM"
>>> measured_result("Cc1nccc(C(=O)Nc2cc3sc([C@H]4CC[C@H](CN5CC6(CC(CCNc7cccc8c7C(=O)N(C7CCC(=O)NC7=O)C8=O)C6)C5)CC4)nc3cc2C(C)(C)O)n1 (some centres unmarked)")
"> 1000 nM"
>>> measured_result("CC(C)(O)c1cc2nc([C@H]3CC[C@H](CN4CC5(CCC(CNc6cccc7c6C(=O)N(C6CCC(=O)NC6=O)C7=O)CC5)C4)CC3)sc2cc1NC(=O)c1cccc(C(F)(F)F)n1 (some centres unmarked)")
"< 50 nM"
>>> measured_result("CC(C)(O)c1cc2nc([C@H]3CC[C@H](CN4CC5(CC(CCNc6cccc7c6C(=O)N(C6CCC(=O)NC6=O)C7=O)C5)C4)CC3)sc2cc1NC(=O)c1cnn2ccc(N3C[C@H]4C[C@@H]3CO4)nc12 (some centres unmarked)")
"> 1000 nM"
>>> measured_result("COc1cc2nc([C@H]3CC[C@H](CN4CC5(CC(CCNc6cccc7c6C(=O)N(C6CCC(=O)NC6=O)C7=O)C5)C4)CC3)sc2cc1-n1ccc2ccccc2c1=O (some centres unmarked)")
"50 to 100 nM"
>>> measured_result("COc1cc2nc([C@H]3CC[C@H](CN4CC5(CCC(CNc6cccc7c6C(=O)N(C6CCC(=O)NC6=O)C7=O)CC5)C4)CC3)sc2cc1NC(=O)c1cccc(C(F)(F)F)n1 (some centres unmarked)")
"50 to 100 nM"
>>> measured_result("CC(C)(O)c1cc2nc([C@H]3CC[C@H](CN4CCC5(CC4)CC4(CC(CCNc6cccc7c6C(=O)N(C6CCC(=O)NC6=O)C7=O)C4)C5)CC3)sc2cc1NC(=O)c1cccc(C(F)(F)F)n1 (some centres unmarked)")
"100 to 500 nM"
>>> measured_result("CC(C)(O)c1cc2nc([C@H]3CC[C@H](CN4CC5(CC(CCNc6cccc7c6C(=O)N(C6CCC(=O)NC6=O)C7=O)C5)C4)CC3)sc2cc1NC(=O)c1cccc(C(F)(F)F)c1 (some centres unmarked)")
"100 to 500 nM"
>>> measured_result("CC(C)(O)c1cc2nc([C@H]3CC[C@H](CN4CC5(CC(CCNc6cccc7c6C(=O)N(C6CCC(=O)NC6=O)C7=O)C5)C4)CC3)sc2cc1NC(=O)c1cccc(C(C)(F)F)n1 (some centres unmarked)")
"< 50 nM"
>>> measured_result("CN(C[C@H]1CC[C@H](c2nc3cc(C(C)(C)O)c(NC(=O)c4cccc(C(F)(F)F)n4)cc3s2)CC1)[C@H]1CC[C@H](CNc2cccc3c2C(=O)N(C2CCC(=O)NC2=O)C3=O)CC1 (some centres unmarked)")
"< 50 nM"
>>> measured_result("CC1(C)OC2(C)c3ccccc3CCN2c2cc3sc([C@H]4CC[C@H](CN5CC6(CC(CCNc7cccc8c7C(=O)N(C7CCC(=O)NC7=O)C8=O)C6)C5)CC4)nc3cc21 (some centres unmarked)")
"> 1000 nM"
>>> measured_result("CC(C)(O)c1cc2nc([C@H]3CC[C@H](CN4CC5(CC(CCNc6cccc7c6C(=O)N(C6CCC(=O)NC6=O)C7=O)C5)C4)CC3)sc2cc1NC(=O)c1ccc(C(F)(F)F)nn1 (some centres unmarked)")
"> 1000 nM"
>>> measured_result("CC(C)(O)c1cc2nc([C@H]3CC[C@H](CN4CC5(CC(CNc6cccc7c6C(=O)N(C6CCC(=O)NC6=O)C7=O)C5)C4)CC3)sc2cc1NC(=O)c1cccc(C(F)(F)F)n1 (some centres unmarked)")
"< 50 nM"
>>> measured_result("CC(C)(O)c1cc2nc([C@H]3CC[C@H](CN4CC5(CC(CCNc6cccc7c6C(=O)N(C6CCC(=O)NC6=O)C7=O)C5)C4)CC3)sc2cc1N1CCc2ccccc2C1=O (some centres unmarked)")
"< 50 nM"
>>> measured_result("CC(C)(O)c1cc2nc([C@H]3CC[C@H](CN4CC(CCNc5cccc6c5C(=O)N(C5CCC(=O)NC5=O)C6=O)C4)CC3)sc2cc1NC(=O)c1cccc(C(F)(F)F)n1 (some centres unmarked)")
"< 50 nM"
